Hello, the source for this data is patent US10947242B2, in case you need it.

target_of_assay: Human recombinant PDE2A (hPDE2A) (Homo sapiens, UniProt O00408)
Construct: His tag (inferred from metal chelate purification); made in house; host or cells: Sf9 insect cells (baculovirus)
Sequence (O00408 whole entry): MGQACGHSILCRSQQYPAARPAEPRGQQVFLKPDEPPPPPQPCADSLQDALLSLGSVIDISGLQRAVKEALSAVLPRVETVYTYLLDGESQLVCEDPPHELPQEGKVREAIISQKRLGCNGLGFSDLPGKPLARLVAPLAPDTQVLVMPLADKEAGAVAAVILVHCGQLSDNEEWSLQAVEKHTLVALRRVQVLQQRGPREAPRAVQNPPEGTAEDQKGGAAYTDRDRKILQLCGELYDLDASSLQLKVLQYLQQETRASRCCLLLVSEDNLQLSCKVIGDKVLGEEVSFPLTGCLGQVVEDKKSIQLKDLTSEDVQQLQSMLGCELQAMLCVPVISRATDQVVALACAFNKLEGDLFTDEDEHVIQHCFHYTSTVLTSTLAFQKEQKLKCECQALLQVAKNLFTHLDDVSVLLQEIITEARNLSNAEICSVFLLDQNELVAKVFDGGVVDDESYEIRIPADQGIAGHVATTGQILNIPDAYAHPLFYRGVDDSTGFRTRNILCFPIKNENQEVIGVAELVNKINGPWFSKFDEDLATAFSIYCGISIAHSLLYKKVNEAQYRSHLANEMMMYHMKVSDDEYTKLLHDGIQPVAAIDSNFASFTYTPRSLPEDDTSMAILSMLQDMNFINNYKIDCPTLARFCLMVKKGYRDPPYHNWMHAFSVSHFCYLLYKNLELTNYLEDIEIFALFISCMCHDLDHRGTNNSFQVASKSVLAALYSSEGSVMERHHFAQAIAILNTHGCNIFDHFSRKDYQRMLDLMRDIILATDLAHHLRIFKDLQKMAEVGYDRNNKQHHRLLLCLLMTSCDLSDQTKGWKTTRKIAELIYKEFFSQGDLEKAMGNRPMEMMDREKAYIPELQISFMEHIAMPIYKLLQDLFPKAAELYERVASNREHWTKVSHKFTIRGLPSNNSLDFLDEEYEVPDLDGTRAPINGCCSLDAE
assay: In vitro assay PDE2A (SPA, 3H-cGMP hydrolysis)
Format: biochemical
run_parameters: human recombinant PDE2A; read-out: hPDE2A Emax
endpoint_name: Emax (%)

Cc1cc(C(=O)N2CC[C@@H](C)[C@H](c3cc(C(F)F)nc4ncnn34)C2)c(Cl)cn1 ... 101
C[C@@H]1CCN(C(=O)c2ccnc(Cl)c2F)C[C@H]1c1cc(C(F)F)nc2ncnn12 ... 101
CCc1cc(C(=O)N2CC[C@@H](C)[C@H](c3cc(C(F)F)nc4ncnn34)C2)cc(C)n1 ... 100
Cc1ncoc1C(=O)N1CC[C@@H](C)[C@H](c2cc(C(F)F)nc3ncnn23)C1 ... 100
C[C@@H]1CCN(C(=O)c2cc3ccccc3o2)C[C@H]1c1cc(C(F)F)nc2ncnn12 ... 102
C[C@@H]1CCN(C(=O)c2nccnc2Cl)C[C@H]1c1cc(C(F)F)nc2ncnn12 ... 97
Cc1cc([C@@H]2CN(C(=O)c3ccn(C)c3)CC[C@H]2C)n2ncnc2n1 ... 99
Cc1cc([C@@H]2CN(C(=O)c3nc4ccccc4o3)CC[C@H]2C)n2ncnc2n1 ... 99
C[C@@H]1CCN(C(=O)c2nc3ccccc3o2)C[C@H]1c1cc(C(F)F)nc2ncnn12 ... 99
Cc1cc([C@@H]2CN(C(=O)c3cc4ccccc4o3)CC[C@H]2C)n2ncnc2n1 ... 100
Cc1cc([C@@H]2CN(C(=O)c3ccc4nccn4c3)CC[C@H]2C)n2ncnc2n1 ... 100
C[C@@H]1CCN(C(=O)c2ccnn2C)C[C@H]1c1cc(C(F)F)nc2ncnn12 ... 100
C[C@@H]1CCN(C(=O)c2ccc(Br)cn2)C[C@H]1c1cc(C(F)F)nc2ncnn12 ... 100
C[C@@H]1CCN(C(=O)c2cc(Cl)ncc2F)C[C@H]1c1cc(C(F)F)nc2ncnn12 ... 100
C[C@@H]1CCN(C(=O)c2ccncc2Cl)C[C@H]1c1cc(C(F)F)nc2ncnn12 ... 98
Cc1nc(C(=O)N2CC[C@H](C)[C@H](c3cc(C(F)F)nc4ncnn34)C2)ccc1F ... 98
C[C@@H]1CCN(C(=O)c2ccc3scnc3c2)C[C@H]1c1cc(C(F)F)nc2ncnn12 ... 101
Cc1cc(C(=O)N2CC[C@@H](C)[C@H](c3cc(C(F)F)nc4ncnn34)C2)c(C)s1 ... 100
Cc1csc2ccc(C(=O)N3CC[C@@H](C)[C@H](c4cc(C(F)F)nc5ncnn45)C3)nc12 ... 101
Cc1cc([C@@H]2CN(C(=O)c3cnc(Cl)c(Cl)c3)CC[C@H]2C)n2ncnc2n1 ... 99
Cc1c(C(=O)N2CC[C@@H](C)[C@H](c3cc(C(F)F)nc4ncnn34)C2)sc2ccccc12 ... 100
